The measurements presented in this section are drawn from paper PMC5193468.

ASSAYED_SYSTEM: T1, His-MBP-Lin28TT (Homo sapiens, UniProt Q9H9Z2 32-187)
T1 sequence: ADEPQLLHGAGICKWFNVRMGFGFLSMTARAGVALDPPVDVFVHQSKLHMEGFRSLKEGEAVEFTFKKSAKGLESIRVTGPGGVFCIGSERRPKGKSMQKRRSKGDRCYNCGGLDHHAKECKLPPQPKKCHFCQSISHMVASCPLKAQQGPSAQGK
PROTOCOL_NOTES: fluorescence anisotropy; 50 uM ZnCl2; FA: 20 nM 5'-fluorescein RNA, 20 mM Tris-HCl pH 7.5, 50-750 mM NaCl (100 mM for the main miR-363 Kd), 10 mM beta-mercaptoethanol, 50 uM ZnCl2, 0.01% Tween 20, 2
OBSERVED_PROPERTY: pKd
Note: pKd values are expressed as the negative base-10 logarithm of concentration in M.

Form field pKd, entry CGGGUCUAUGAUACCACCCGGUACAGGAG (structured_RNA) [let-7g 29-57] : 7.27
